Data origin, for the record: ChEMBL document CHEMBL6103627

System: NCI-H446
Measurement Notes: Antitumor activity against human NCI-H446 cells assessed as inhibition of cell growth by SRB assay
Assay type: functional, cell-based
Where a name gives a salt, the structure may show the parent alone.
Readout Name: IC50

- Compound: "Cc1cc(=O)c2c(CCCC(=O)Cc3cc(O)cc(=O)o3)cc(O)cc2o1"
  Result: "< 50 µM"
- Compound: "Cc1cc(=O)c2c3c(c(O)cc2o1)/C(=C/c1cc(=O)cc(O)o1)C[C@@H](O)C3"
  Result: "> 50 µM"
- Compound: "COc1cccc2c1C(=O)c1c(O)c3c(c(O)c1C2=O)C[C@@](O)(C(=O)CO)C[C@@H]3O[C@H]1C[C@H](N)[C@H](O)[C@H](C)O1 [DOXORUBICIN HYDROCHLORIDE]"
  Result: "0.8 µM"
- Compound: "Cc1cc(=O)c2c3c(c(O)cc2o1)[C@](O)(Cc1cc(=O)cc(O)o1)C[C@@H](O)C3"
  Result: "> 50 µM"
